Entry source: patent US20250177546A1

Each entry below lists one item and its recorded EC50 (read off the curve) value.
biological target: T1, human ROR1 on cells (full-length human ROR1 on huROR1-HEK293 cells; human ROR1 on A549 and HT-29 tumor cells) (human, UniProt Q01973 30-937); assay: flow cytometry (FACS) on huROR1-HEK293 cells, anti-human IgG-Fc secondary antibody, MFI
T1 construct: whole, on cells; also called hROR1-HEK293T; A549 tumor cells
T1 sequence (Q01973 30-937): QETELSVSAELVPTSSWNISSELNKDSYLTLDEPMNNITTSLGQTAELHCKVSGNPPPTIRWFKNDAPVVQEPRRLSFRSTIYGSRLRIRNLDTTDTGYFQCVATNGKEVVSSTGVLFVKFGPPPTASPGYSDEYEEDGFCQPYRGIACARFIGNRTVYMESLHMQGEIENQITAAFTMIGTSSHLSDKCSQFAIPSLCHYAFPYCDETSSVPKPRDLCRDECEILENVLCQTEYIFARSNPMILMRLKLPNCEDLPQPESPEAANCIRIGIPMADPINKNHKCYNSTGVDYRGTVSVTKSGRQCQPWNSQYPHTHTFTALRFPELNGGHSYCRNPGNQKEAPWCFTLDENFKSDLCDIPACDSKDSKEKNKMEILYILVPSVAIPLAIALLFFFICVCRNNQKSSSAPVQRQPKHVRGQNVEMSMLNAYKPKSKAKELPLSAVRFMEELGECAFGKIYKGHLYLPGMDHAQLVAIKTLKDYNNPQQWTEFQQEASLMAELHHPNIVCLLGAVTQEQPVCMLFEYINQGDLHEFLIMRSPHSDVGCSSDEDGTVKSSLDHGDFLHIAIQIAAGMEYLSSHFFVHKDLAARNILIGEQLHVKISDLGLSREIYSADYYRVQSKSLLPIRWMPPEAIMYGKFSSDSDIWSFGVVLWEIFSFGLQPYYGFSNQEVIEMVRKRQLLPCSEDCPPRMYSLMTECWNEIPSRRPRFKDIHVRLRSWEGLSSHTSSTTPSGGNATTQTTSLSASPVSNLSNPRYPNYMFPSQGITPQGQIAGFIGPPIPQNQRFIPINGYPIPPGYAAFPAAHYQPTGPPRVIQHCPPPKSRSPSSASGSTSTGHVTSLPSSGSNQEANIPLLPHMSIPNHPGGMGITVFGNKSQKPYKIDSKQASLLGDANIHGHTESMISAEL

BINDER: C42 (chimeric antibody) (antibody, human IgG1, kappa, V domains shown, ExpiCHO expression) VH: EVMLVESGGGLVKPGGSLKLSCAASGFTFSNYIMSWVRQTPEKRLEWVATINSGGTNTYYPDSVKGRFTISRDNAKNSLYLQMNSLRSEDTALYYCTRYNGNYVWFAYWGQGTLVTVSA VL: DIVLTQSPAIMSASPGEKVTMTCSASSSVSFIYWYQQKPGSSPRLLIYDTSNLASGVPVRFSGSGSGTSYSLTISRMEAEDAATYYCQQWSNYHFTFGSGTKLEIKR
TEST_VALUE: ~0.2 µg/mL

Entry B39 (chimeric antibody) (antibody, human IgG1, kappa, V domains shown, ExpiCHO expression) VH: EVKLVESGGGLVKPGGSLKLSCAASGFTFSTYAMSWVRQTPEKRLEWVASISTGASTYYPDSVKGRFTISRDNARNILYLQMSSLRSEDTAMYYCAREETTTAALYYAMDYWGQGTSVTVSS VL: DIKITQSPSSMYASLGERVTITCKASQDINNYLSWFQQKPGKSPKTLIYRANRLVDGVPSRFSGSGSGQDYSLTISSLEYEDMGIYYCLQFDEFPYTFGGGTKLEIKR has what EC50 (read off the curve)? ~0.1 µg/mL
